Please respond with reported relative binding activity vs UNK1 (IC50 ratio) for every item in the list.
Assayed target: T1, HLA-DP4 molecule DP402 (DPA1*0103/DPB1*0402) (human), P20036
T1 chain 1: not shown
T1 chain 2: not shown
Test method notes: competition ELISA, tracer bUNK1
Field format: number, assumed fold, no unit text.

Fill in the blank: the reported relative binding activity vs UNK1 (IC50 ratio) of RNGYRALMDKSLHVGTQCALTRR (modifications not checked) [MART1 51-73] is ____.
414

Fill in the blank: the reported relative binding activity vs UNK1 (IC50 ratio) of LLEFYLAMPFATPMEAELARRSLAQ (modifications not checked) [NY-ESO1 87-111] is ____.
9

Fill in the blank: the reported relative binding activity vs UNK1 (IC50 ratio) of TISSYFVGKMYFNLIDTK (modifications not checked) [Api m1 77-94] is ____.
10

Fill in the blank: the reported relative binding activity vs UNK1 (IC50 ratio) of GVQIVRQIRSGERFLKIWSQ (modifications not checked) [NS-p2 (RV NS 101-120)] is ____.
3.89
